Consider the following molecules and their measured activation readings.
Biological target: Integrin alpha-4 (Homo sapiens)
Assay: enhancers of LDV-FITC binding to VLA-4 integrin, primary screen, Jurkat cells, flow cytometry (AID 528);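 note: 0% = ligand binding without compound and 100% = manganese-stimulated maximal binding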
Conditions: hits give high values, screened at 10 µM (by protocol)
Out of some 24,000 compounds screened, fewer than 10 were called active. Inconclusive results (about 9%) are left out. The list is a sample of the results.
Lab book: enter the figure in %, no units written.

COc1ccc(CCNC(=O)CCCCn2c(=O)[nH]c3ccccc3c2=O)cc1OC : 4

Input: Recall the recorded activation for Cc1noc(C)c1S(=O)(=O)N(CC(=O)Nc1ccc2c(c1)OCCO2)c1ccc(C(C)C)cc1 with Integrin alpha-4 (Homo sapiens) and state it.
Output: -8

Input: And then CSc1sc(C)cc1C1C(C#N)=C(N)N(c2cccnc2)C2=C1C(=O)CCC2 (configuration not stated) , what is it?
Output: 0

Input: And then Cc1cc(NS(=O)(=O)c2ccccc2)no1 , what is it?
Output: 5.5

Input: And then CN1CCN(S(=O)(=O)c2ccc3[nH]cc(C(=O)O)c(=O)c3c2)CC1 , what is it?
Output: 2

* * *

Consider the following molecules and their measured activation readings.
Biological target: Integrin alpha-4 (Homo sapiens) (UniProt P13612)
Sequence (P13612 whole entry, looked up): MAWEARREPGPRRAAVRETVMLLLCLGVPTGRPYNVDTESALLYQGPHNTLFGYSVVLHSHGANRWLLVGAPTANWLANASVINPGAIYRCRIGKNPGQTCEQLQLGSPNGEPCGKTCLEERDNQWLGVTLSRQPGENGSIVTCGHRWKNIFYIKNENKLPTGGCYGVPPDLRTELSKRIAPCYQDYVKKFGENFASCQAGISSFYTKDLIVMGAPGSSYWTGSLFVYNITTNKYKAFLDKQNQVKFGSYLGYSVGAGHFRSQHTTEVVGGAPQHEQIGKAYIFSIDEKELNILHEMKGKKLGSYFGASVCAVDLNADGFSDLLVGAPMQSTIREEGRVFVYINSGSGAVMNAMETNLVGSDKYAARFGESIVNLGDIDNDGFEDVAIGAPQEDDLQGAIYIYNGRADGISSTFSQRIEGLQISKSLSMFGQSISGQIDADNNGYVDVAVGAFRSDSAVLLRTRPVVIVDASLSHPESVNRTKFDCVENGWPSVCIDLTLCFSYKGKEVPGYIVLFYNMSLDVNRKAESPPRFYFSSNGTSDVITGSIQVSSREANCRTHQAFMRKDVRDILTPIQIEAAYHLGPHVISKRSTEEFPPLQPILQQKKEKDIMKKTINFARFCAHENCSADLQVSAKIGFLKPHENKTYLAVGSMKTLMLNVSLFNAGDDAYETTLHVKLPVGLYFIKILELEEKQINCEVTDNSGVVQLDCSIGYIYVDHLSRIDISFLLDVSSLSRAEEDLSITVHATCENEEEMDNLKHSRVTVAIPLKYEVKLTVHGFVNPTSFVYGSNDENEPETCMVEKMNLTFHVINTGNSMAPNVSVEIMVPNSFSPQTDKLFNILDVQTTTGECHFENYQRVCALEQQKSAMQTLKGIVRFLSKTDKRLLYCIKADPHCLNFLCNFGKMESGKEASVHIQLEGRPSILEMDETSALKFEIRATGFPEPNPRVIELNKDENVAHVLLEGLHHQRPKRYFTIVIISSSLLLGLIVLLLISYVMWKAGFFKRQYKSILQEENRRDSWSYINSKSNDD
Assay: enhancers of LDV-FITC binding to VLA-4 integrin, primary screen, Jurkat cells, flow cytometry (AID 528)
Conditions: hits give high values, screened at 10 µM (by protocol)
Hit rate of the full screen: of about 24,000 compounds, fewer than 10 were called active. Inconclusive results (about 9%) are left out. These entries were drawn from the full list.

CCOC(=O)CSc1nnc(CNC(=O)Cc2ccccc2)n1-c1ccccc1OC : -3% (inactive)
CCC(=O)N1c2ccc(S(=O)(=O)CCC(=O)N3CCN(c4ccccc4)CC3)cc2CC1C (stereo unspecified) : -5% (inactive)
Cc1ccccc1NC(=O)Cc1nnc(SCC(=O)N2CCN(c3ccccc3)CC2)n1C : 0.5% (inactive)
Cc1ccnc(N2C(=O)c3ccccc3C2Nc2ccc3c(c2)OCCO3)c1 (stereo unspecified) : -5% (inactive)

Input: I am curious: what activation value has been reported for O=C(O)CCN1C(=O)CC2(CCCCC2)C1=O ?
Output: -1% (inactive)

Input: And then O=C(NCc1ccco1)C1CCCN(S(=O)(=O)c2cnc[nH]2)C1 (stereo unspecified) , what is it?
Output: -5% (inactive)

Input: And then Cc1noc(C)c1S(=O)(=O)N1CCCC(C(=O)Nc2nccs2)C1 (stereo unspecified) , what is it?
Output: 0% (inactive)

Input: And then COCCCNC(=O)CCc1nc2cccnc2n1Cc1ccc(OC)cc1 , what is it?
Output: 4% (inactive)

Input: And then CCOC(=O)N1CCC(NC(=O)CCc2cn(C)c3ccccc23)CC1 , what is it?
Output: 8% (inactive)

Input: And then CCOC(=O)c1cn(CC(=O)Nc2ccc(C(C)C)cc2)nn1 , what is it?
Output: -2% (inactive)

Input: And then Cc1nc(N2CCN(c3ncccn3)CC2)c2oc3ccccc3c2n1 , what is it?
Output: -3.5% (inactive)

Input: And then CCn1c(SCC(=O)Nc2ccc3c(c2)OCCO3)nc2c(c1=O)SC(C)C2 (stereo unspecified) , what is it?
Output: -4% (inactive)

Input: And then CCOC(=O)N1CCN(S(=O)(=O)c2cc3c(cc2C)NC(=O)CO3)CC1 , what is it?
Output: -8% (inactive)

Input: And then Cc1ccc(NC(=O)C2CC(c3ccc(F)cc3)=NO2)cc1 (stereo unspecified) , what is it?
Output: 3% (inactive)

Input: And then COCCNC(=O)CN1C(=O)CSc2ncccc21 , what is it?
Output: 2.7% (inactive)

Input: And then Cc1ccc(S(=O)(=O)NCCN2CCOCC2)cc1C , what is it?
Output: -2% (inactive)

Input: And then CCOc1ccc(S(=O)(=O)n2ccnc2)c2ccccc12 , what is it?
Output: 1% (inactive)

Input: And then CCC(=O)c1ccc(OCC(O)CN2C(=O)NC(C)(C)C2=O)cc1 (stereo unspecified) , what is it?
Output: -4% (inactive)

Input: And then COc1cccc(Oc2ccc(N)cc2)c1 , what is it?
Output: 8% (inactive)

Input: And then Cc1cnc(C(=O)OCC(=O)Nc2ccc(Cl)cc2Cl)cn1 , what is it?
Output: 3% (inactive)

* * *

Consider the following compounds and their measured activation readings.
Target: Integrin alpha-4 (Homo sapiens)
Assay: enhancers of LDV-FITC binding to VLA-4 integrin, primary screen, Jurkat cells, flow cytometry (AID 528);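 note: 0% = ligand binding without compound and 100% = manganese-stimulated maximal binding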
Conditions: hits give high values, screened at 10 µM (by protocol)
Out of some 24,000 compounds screened, fewer than 10 were called active. About 9% were inconclusive and are not listed. Only a sample is shown.
Lab book: enter the figure in %, no units written.

Input: I am curious: what activation value has been reported for Cc1ccccc1CN1CCN(C(=O)c2cccc(F)c2)CC1 ?
Output: 4

Input: And then COc1cccc(NC(=O)Cn2cnc3sc(C)c(S(=O)(=O)N4CCN(C)CC4)c3c2=O)c1 , what is it?
Output: 1

Input: And then CC(C)C(=O)Nc1c(C(=O)c2ccc(F)cc2)oc2ccccc12 , what is it?
Output: -2

Input: And then O=C(NC1CCCCC1)C1CCCN(S(=O)(=O)c2cccs2)C1 (configuration not stated) , what is it?
Output: -10.5

Input: And then CCC(C)NC(=O)C1CCC(=O)N1Cc1ccc(C)cc1 (configuration not stated) , what is it?
Output: 4

Input: And then CCOc1ccc(CNC(=O)C2CCC(=O)N2C2CCCC2)cc1OC (configuration not stated) , what is it?
Output: -7

Input: And then O=C1c2cccnc2C(=O)N1Cc1cccs1 , what is it?
Output: 0

* * *

Target: Integrin alpha-4 (Homo sapiens) (UniProt P13612)
Experiment: enhancers of LDV-FITC binding to VLA-4 integrin, primary screen, Jurkat cells, flow cytometry (AID 528);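 note: 0% = ligand binding without compound and 100% = manganese-stimulated maximal binding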
Settings: hits give high values, screened at 10 µM (by protocol)
The whole screen tested about 24,000 compounds, of which fewer than 10 were called active. Another 9% or so got no clear call; they are omitted. These entries were drawn from the full list.
Consider the following molecules and their measured activation readings.
Lab book: enter the figure in %, no units written.

The examples below pair each entry with its known result.
CCOC(=O)C1CCN(C(=O)C2CCN(S(=O)(=O)CC)CC2)CC1 : 0
CCOC(=O)CNC(=O)CN1C(=O)CCSc2ccccc21 : 6
CCOC(=O)Cn1c(N)c(C(=O)OC)sc1=S : -9
O=S1(=O)CC(NCc2ccccc2)C(Nc2ccc(Cl)cc2)C1 (stereo unspecified) : -8
CC(=O)c1c(C)c[nH]c1C : 3
COc1ccc(C2C3=C(OC(C)=O)c4ccccc4C3=Nc3c2c(=O)n(C)c(=O)n3C)cc1 (stereo unspecified) : -0.5
Cc1cc(C)nc(-n2nc(C)cc2NC(=O)c2ccc(Br)o2)n1 : 1.5
O=C(O)CCC(=O)Nc1ccc(N2CCOCC2)cc1 : 2

Input: I am curious: what activation value has been reported for CC1CCN(Cc2nc3c(c(=O)n(C)c(=O)n3C)n2Cc2cccc3ccccc23)CC1 ?
Output: 2

Input: And then COc1cccc(OCC(O)CN2CCN(CCO)CC2)c1 (stereo unspecified) , what is it?
Output: 3.3

Input: And then O=C(CCn1c(=S)[nH]c2ccccc2c1=O)NCCCN1CCCC1=O , what is it?
Output: 5

Input: And then COc1ccccc1C(=O)N1CCN=C1SCc1cccnc1 , what is it?
Output: 2

Input: And then CC(=O)c1c(N)n(C)c(=O)n(C)c1=O , what is it?
Output: 9

Input: And then COC(=O)c1cc(S(=O)(=O)NC2CCN(Cc3ccccc3)CC2)cn1C , what is it?
Output: 12

Input: And then CCCn1nnc2sc3c(c2c1=O)CCC(C)C3 (stereo unspecified) , what is it?
Output: 4

* * *

Consider the following molecules and their measured activation readings.
Biological target: Integrin alpha-4 (Homo sapiens) (UniProt P13612)
Experiment: enhancers of LDV-FITC binding to VLA-4 integrin, primary screen, Jurkat cells, flow cytometry (AID 528);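 note: 0% = ligand binding without compound and 100% = manganese-stimulated maximal binding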
Settings: hits give high values, screened at 10 µM (by protocol)
In all, about 24,000 compounds went through this assay and fewer than 10 were called active. Another 9% or so got no clear call; they are omitted. These entries were drawn from the full list.
Lab book: enter the figure in %, no units written.

The examples below pair each entry with its known result.
CCOc1cc2[nH]c(=O)n(CCC(=O)NCc3ccc(OC)cc3)c(=O)c2cc1OCC : 1
CCOC(=O)N1CCC(NC(=O)COc2cc(=O)n(C)c3ccccc23)CC1 : -3
Cc1nc(SCC(=O)Nc2cc(C)on2)c2c3c(sc2n1)CCCC3 : -3.5
CCOC(=O)C1CCN(C(=O)C2CCN(S(=O)(=O)N3CCCC3)CC2)CC1 : 6

Input: I am curious: what activation value has been reported for Nc1c(C(=O)NCc2ccccc2)nnn1Cc1cccc(Cl)c1 ?
Output: -4

Input: And then Cc1ccc(S(=O)(=O)N2CCCC2CO)cc1 (configuration not stated) , what is it?
Output: 5
